Hey, just so you know, these numbers are from patent US11629201B2.

# Tested on: PC-3 PIP/flu tumor-bearing mice
# test.name: Biodistribution studies in PC-3 PIP/flu tumor-bearing mice
# run.conditions: 192 h p.i.
measured.parameter: Stomach (% IA/g)
Your answer should be a plain number; it is taken to be in % IA/g.

Prompt: For the record O=C(O)CCC(NC(=O)NC(CCCCNC(=O)C(Cc1ccc2ccccc2c1)NC(=O)C1CCC(CNC(=O)C(CCCCNC(=O)CCCc2ccc(I)cc2)NC(=O)CN2CCN(CC(=O)O)CCN(CC(=O)O)CCN(CC(=O)O)CC2)CC1)C(=O)O)C(=O)O (stereo not shown) [^177Lu-PSMA-ALB-03, metal not drawn] , what value of Stomach is listed for PC-3 PIP/flu tumor-bearing mice?
Response: 0.78

Prompt: Record: O=C(O)CCC(NC(=O)NC(CCCCNC(=O)C(Cc1ccc2ccccc2c1)NC(=O)C1CCC(CNC(=O)C(CCCCNC(=O)CN2CCN(CC(=O)O)CCN(CC(=O)O)CCN(CC(=O)O)CC2)NC(=O)CCCCCCC(=O)NC(CCCCNC(=O)CCCc2ccc(I)cc2)C(=O)O)CC1)C(=O)O)C(=O)O (stereo not shown) [^177Lu-PSMA-ALB-04, metal not drawn]
Response: 0.56

Prompt: Try this compound too: O=C(O)CCC(NC(=O)NC(CCCCNC(=O)C(Cc1ccc2ccccc2c1)NC(=O)C1CCC(CNC(=O)C(CCCCNC(=O)CN2CCN(CC(=O)O)CCN(CC(=O)O)CCN(CC(=O)O)CC2)NC(=O)CC(NC(=O)CC(NC(=O)CCCc2ccc(I)cc2)C(=O)O)C(=O)O)CC1)C(=O)O)C(=O)O (stereo not shown) [^177Lu-PSMA-ALB-05, metal not drawn]
Response: 0.16

Prompt: Next record, please: O=C(O)CCC(NC(=O)NC(CCCCNC(=O)C(Cc1ccc2ccccc2c1)NC(=O)C1CCC(n2cc(CC(NC(=O)CN3CCN(CC(=O)O)CCN(CC(=O)O)CCN(CC(=O)O)CC3)C(=O)NC(CCCCNC(=O)CCCc3ccc(I)cc3)C(=O)O)nn2)CC1)C(=O)O)C(=O)O (stereo not shown) [^177Lu-PSMA-ALB-01, metal not drawn]
Response: 0.73
